measurement.target: Fuc(a1-2)Gal(b1-4)[Fuc(a1-3)]GlcNAc(b1-3)Gal(b1-4)[Fuc(a1-3)]GlcNAc(b1-3)Gal(b1-4)[Fuc(a1-3)]GlcNAc
protocol.details: glycan array binding signal (z-score within array); higher = stronger binding
stated.conditions: glycan notation: IUPAC condensed, linker removed
This excerpt belongs to a sample that is enriched for the strongest signals.
# glycan array binding signal (z-score) per record follows
Answer using only a numeral; do not append any unit.

Nc3LysM (protein) QFTVPPDTTAEPNTIKTCTWWHVAGSGDSCTSIASTYGITSEQFARWDMETTDSPKNPSVATACKLTVGNSYCIENNFGQDDPPTPSISSSTLIGTATTSTTASTTTGNGISTPTPIQEGMETATTTTSSGNGITTPTPTQAGMETVGNCDRFHLVKSGDQCGTIASTYGITLANFYSWNPAVGTSCQSLWLDTYVCVRTIGFVPPKTTTTTTKKPTSTTSAGGVATPTPTQPGMETVSGCKKFHKGRGNVSTVASGDQCGTIATRYGISLANFYSWNPAVGSSCQTLWLDYYVCVGR	0.172
LlpA (Arthrobacter sp) (protein) MGSSHHHHHHSSGLVPRGSHMTLHPETALRPGAAATSPNSRYRLLYQTDGNLVLYGPDGPLWDSGTNGHGAGACIMQADGNLVLYGPNDEYVWDTETDNNPGSRLVIQDDGNAVIYRPDGSPLWATETCQPPGSADSHVLQSGSTLTPTHGIRSANGLYGLLYQTDGNLVFYGPDGPLWDSGTNGRGAGACIMQPDGNLVLYGPHDEYVWDTETDNNPGSRLVIQDDGNAVIYRPDGNPTWVTGTH	-0.294
Gal 8 (Homo sapiens), O00214 (protein) MMLSLNNLQNIIYNPVIPFVGTIPDQLDPGTLIVIRGHVPSDADRFQVDLQNGSSMKPRADVAFHFNPRFKRAGCIVCNTLINEKWGREEITYDTPFKREKSFEIVIMVKDKFQVAVNGKHTLLYGHRIGPEKIDTLGIYGKVNIHSIGFSFSSDLQSTQASSLELTEISRENVPKSGTPQLPSNRGGDISKIAPRTVYTKSKDSTVNHTLTCTKIPPMNYVSKRLPFAARLNTPMGPGRTVVVKGEVNANAKSFNVDLLAGKSKDIALHLNPRLNIKAFVRNSFLQESWGEEERNITSFPFSPGMYFEMIIYCDVREFKVAVNGVHSLEYKHRFKELSSIDTLEINGDIHLLEVRSW	-0.386

Query: glycan array binding signal (z-score); subject: GALT1 615 (Arabidopsis thaliana), Q8L7F9 (protein) DPMRGSHHHHHHGMASMTGGQQMGRDLYDDDDKSRLQKPYITAAASVVVTPNTTLPMEWLRITLPDFMKEARNTQEAISGDDIAVVSGLFVEQNVSKEEREPLLTWNRLESLVDNAQSLVNGVDAIKEAGIVWESLVSAVEAKKLVDVNENQTRKGKEELCPQFLSKMNATEADGSSLKLQIPCGLTQGSSITVIGIPDGLVGSFRIDLTGQPLPGEPDPPIIVHYNVRLLGDKSTEDPVIVQNSWTASQDWGAEERCPKFDPDMNKKVDDLDECNKMVGGEINRTSSTSLQSNTSRGVPVAREASKHEKYFPFKQGFLSVATLRVGTEGMQMTVDGKHITSFAFRDTLEPWLVSEIRITGDFRLISILA
1.95

For Gal 7 (Canis lupus) (protein) MAGSSNVPHKTSLPEGIRVGTVMRIRGVVPNKAGRFYVNLLCGEAPGSEAALHFNPRLDESTVVFNTLEQGAWGREERGTGIPFQRGQPFDVLLIATDEGFKAVVGDSEYHHFRYRIPPARVRLLEVGGDLQLESVSVF , what is its reported glycan array binding signal (z-score)?
5.78
